Below: a set of entries, each annotated with reported koff.
- assayed-target: cyno ST2L (cyno)
- method-notes: affinity table; method not stated
Report the figure in s⁻¹ without appending any unit label.

Record excerpt, results attached:
STLM232 (antibody, from another filing, V domains shown) VH: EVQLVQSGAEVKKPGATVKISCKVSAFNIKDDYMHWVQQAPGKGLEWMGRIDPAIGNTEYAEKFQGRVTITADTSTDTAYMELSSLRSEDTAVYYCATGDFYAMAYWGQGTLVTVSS VL: DIQMTQSPSSLSASVGDRVTITCITNTDIDDVIHWYQQKPGKAPKLLIYEGNTLRPGVPSRFSGSGSGTDFTFTISSLQPEDIATYYCLQSDNMLTFGQGTKLEIK | 0.00797
STLM211 (antibody, from another filing, V domains shown) VH: EVQLLESGGGLVQPGGSLRLSCAASGFTFSGYAMIWVRQAPGKGLEWVSYIEGEGGETYYADSVKGRFTISRDNSKNTLYLQMNSLRAEDTAVYYCARDPWSTEGSFFVLDYWGQGTLVTVSS VL: EIVLTQSPATLSLSPGERATLSCRASQSVDDDLAWYQQKPGQAPRLLIYDASNRATGIPARFSGSGSGTDFTLTISSLEPEDFAVYYCQQYNDAITFGQGTKVEIK | 0.00139
STLM123 (antibody, from another filing, V domains shown) VH: EVQLLESGGGLVQPGGSLRLSCAASGFTFSDYAMFWVRQAPGKGLEWVSAIEGEGGETNYADSVKGRFTISRDNSKNTLYLQMNSLRAEDTAVYYCARDPWSTEGSFFVLDYWGQGTLVTVSS VL: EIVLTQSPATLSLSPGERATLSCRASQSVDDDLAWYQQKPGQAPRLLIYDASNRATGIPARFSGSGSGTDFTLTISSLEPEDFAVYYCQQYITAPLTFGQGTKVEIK | 0.000519
STLM222 (antibody, from another filing, V domains shown) VH: EVQLLESGGGLVQPGGSLRLSCAASGFTFSIYSMFWVRQAPGKGLEWVSDIGGEGGGTSYADSVKGRFTISRDNSKNTLYLQMNSLRAEDTAVYYCARDPWSTEGSFFVLDYWGQGTLVTVSS VL: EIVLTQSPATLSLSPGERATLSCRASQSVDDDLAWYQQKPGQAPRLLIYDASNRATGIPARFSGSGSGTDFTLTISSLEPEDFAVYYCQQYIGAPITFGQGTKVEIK | 0.000345

Pending binder:
Q: Specify koff for STLM230 (antibody, from another filing, V domains shown) VH: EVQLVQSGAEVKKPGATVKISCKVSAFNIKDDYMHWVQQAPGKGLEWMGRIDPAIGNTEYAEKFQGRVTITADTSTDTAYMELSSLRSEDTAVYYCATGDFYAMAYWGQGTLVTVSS VL: DIQMTQSPSSLSASVGDRVTITCITNTDIDDVIHWYQQKPGKAPKLLIYEGNTLRPGVPSRFSGSGSGTDFTLTISSLQPEDFATYYCLQSDNMLTFGQGTKLEIK and stop.
A: 0.0073
